Percent Response listing for selected compounds.
- Test system: Male cockroaches (Blattela germanica)
- Protocol: Y-tube olfactometer bioassay of controlled release pellets aged in a fume hood
- Format: in vivo
- Condition Description: Charcoal absorbent, methylcellulose coated pellet; aged 1 hour in fume hood; mean of 3 replicates
Give just the numeric value; % need not be written.

>  <Compound>
CCCCCCC(=O)OCCCC [Butyl Heptanoate]

>  <Measurement Unit>
%

>  <Percent Response>
70.0

$$$$

Request: Look up Percent Response for this compound: CCCOC(=O)CC [Propyl Propanoate]
Result: 65.0

Request: Look up Percent Response for this compound: C/C=C(\C)C(=O)OC [methyl tiglate]
Result: 76.6

Request: Look up Percent Response for this compound: CCCCCC(=O)OCCCC [Butyl Hexanoate]
Result: 82.0
